experimental_target: Oxytocin receptor (Homo sapiens) (UniProt P30559)
Sequence (P30559 whole entry, looked up): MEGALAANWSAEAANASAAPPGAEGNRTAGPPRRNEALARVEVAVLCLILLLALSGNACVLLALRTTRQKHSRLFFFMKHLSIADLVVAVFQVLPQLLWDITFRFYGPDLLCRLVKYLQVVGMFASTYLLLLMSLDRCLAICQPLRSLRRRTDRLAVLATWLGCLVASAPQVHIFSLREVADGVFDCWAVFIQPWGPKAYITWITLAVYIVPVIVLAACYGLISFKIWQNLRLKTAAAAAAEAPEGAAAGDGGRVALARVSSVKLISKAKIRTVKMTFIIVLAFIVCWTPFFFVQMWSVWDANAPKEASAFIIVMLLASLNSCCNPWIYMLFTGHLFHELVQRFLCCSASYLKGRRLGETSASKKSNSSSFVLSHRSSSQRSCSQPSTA
assay_remarks: oxytocin receptor activation by calcium flux – fluorescence, CHO-OTR cells, Fluo-8 calcium, primary screen (AID 2435);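 further: peak over basal fluorescence ratio from a 100 s FLIPR kinetic read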
study_conditions: Fluo-8 calcium fluorescence, at 3 µM, hits give high values, normalized: DMSO 0%, oxytocin 100%
Among all 320,000 compounds or so, about 1,000 (0.31%) were called active. The entries come from a sample that favours actives as a whole.
Parameter: activation. Scope: all listed entries.
Answer with a number only, understood to be in %.

CCc1ccc(-c2nn(-c3ccccc3C)cc2C(=O)N2CCN(C3CCS(=O)(=O)C3)CC2)cc1 (configuration not stated)	2.09
CCOc1cc(/C=C/c2nc3ccccc3c(=O)[nH]2)cc(Br)c1OC	0.74
CC(=O)Nc1ccc(S(=O)(=O)N(C)c2ccc(OCC(=O)OCC(=O)N3CCCCC3)cc2)cc1	0.24
CCCCOc1ccc(CON(C(C)=O)C(C)=O)cc1Cl	-0.28
COc1ccc(C(=O)NC(=S)NNC(=O)CCc2ccccc2)cc1	46

Q: Note activation for the compound shown: CC1=CC(C)(C)NC(=S)N1c1ccccc1
Ans: -0.69

Q: Note activation for the compound shown: CCc1ccc(-c2nn(-c3ccccc3)cc2CSC(=N)N)cc1
Ans: 24.2

Q: Note activation for the compound shown: CC(/C=C/c1ccccc1)=N\NC(=O)C1CC1(C)c1ccccc1 (configuration not stated)
Ans: -2.09

Q: Note activation for the compound shown: C=CCN1C(=NC(=O)COc2ccccc2)SC2CS(=O)(=O)CC21 (configuration not stated)
Ans: 1.7

Q: Note activation for the compound shown: COC(=O)CN(c1nc(C)c(Cl)c(OC)n1)S(=O)(=O)c1ccc(C)cc1
Ans: -1.64

Q: Note activation for the compound shown: COc1ccc(CCC(=O)c2ccc(OC)cc2)cc1
Ans: -2.31

Q: Note activation for the compound shown: COc1ccc(C(=O)NC(=S)NC2CCCCC2)cc1
Ans: -1.13

Q: Note activation for the compound shown: COCCCNC(=S)NC(=O)c1ccccc1
Ans: 0.86

Q: Note activation for the compound shown: COc1ccc(C(=O)NC2CCN(C(=S)NCCc3ccccc3)CC2)cc1
Ans: -0.97

Q: Note activation for the compound shown: Cc1cc(S(=O)(=O)N2CCOCC2)ccc1OCC(=O)Nc1cccc(C(F)(F)F)c1
Ans: 0.91

Q: Note activation for the compound shown: Cc1ccc(C(=O)Cc2nnc(C)s2)cc1
Ans: -0.26

---

experimental_target: Oxytocin receptor (Homo sapiens)
assay_remarks: oxytocin receptor activation by calcium flux – fluorescence, CHO-OTR cells, Fluo-8 calcium, primary screen (AID 2435);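 further: peak over basal fluorescence ratio from a 100 s FLIPR kinetic read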
study_conditions: Fluo-8 calcium fluorescence, at 3 µM, normalized: DMSO 0%, oxytocin 100%
Hit rate of the full screen: of about 320,000 compounds, about 1,000 (0.31%) were called active.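 The calls were made as follows: active = activation above the mean of all tested compounds plus 3 SD, cutoff set per screening run (cut at about 20% in these data); inactive = the rest.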 Shown is part of a subset that was picked to be rich in actives.
Respond only with the outcome that fits, drawn from yes (1) = active, no (0) = inactive

Previously resolved entries follow.
CCOC(=O)Cn1c(=O)oc2cc(S(=O)(=O)N(C)Cc3ccco3)ccc21	no (0)
COc1cc(OC)c(-n2c(C)cc(C=O)c2C)cc1Cl	no (0)
Cc1ccc(S(=O)(=O)N2CCN(C(=O)Cc3sc(C)nc3-c3ccc(F)cc3)CC2)c(C)c1	no (0)
CCOc1ccc(N(C(=O)c2snc(C(N)=O)c2N)C(C(=O)NCC2CCCO2)c2c[nH]c3ccccc23)cc1 (stereo not given)	no (0)

Q: Hi, sorry to bother you, what did the test record for COc1ccc([N+](=O)[O-])cc1NCC(=O)c1ccc(C)cc1 ?
Ans: no (0)

Q: Hi, sorry to bother you, what did the test record for CN(C(=O)CN(CCO)CC(=O)N(C)C(C)(C)Cc1ccccc1)C(C)(C)Cc1ccccc1 ?
Ans: yes (1)

Q: Hi, sorry to bother you, what did the test record for COc1cc(OC)c(-n2cc(-c3ccc(Cl)cc3)[nH]c2=O)cc1Cl ?
Ans: yes (1)

Q: Hi, sorry to bother you, what did the test record for COc1cc(OC)c(N2CC(C(=O)Nc3cc(Cl)ccc3N3CCOCC3)CC2=O)cc1Cl (stereo not given) ?
Ans: no (0)

Q: Hi, sorry to bother you, what did the test record for Cc1ccccc1N1CC(C(=O)Nc2ccc(S(=O)(=O)N3CCCC3)cc2)CC1=O (stereo not given) ?
Ans: no (0)

Q: Hi, sorry to bother you, what did the test record for CCN(CC)CCCNC(=O)CCc1ccccc1 ?
Ans: no (0)

---

Parameter: activation. Scope: all listed entries.
experimental_target: Oxytocin receptor (Homo sapiens)
assay_remarks: oxytocin receptor activation by calcium flux – fluorescence, CHO-OTR cells, Fluo-8 calcium, primary screen (AID 2435);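 further: peak over basal fluorescence ratio from a 100 s FLIPR kinetic read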
study_conditions: Fluo-8 calcium fluorescence, at 3 µM, hits give high values, normalized: DMSO 0%, oxytocin 100%
Among all 320,000 compounds or so, about 1,000 (0.31%) were called active. What follows is part of a selection rich in actives, with near analogues and random picks from the rest.

Some entries whose results are on file:
Cc1nn(C)cc1N1C(=O)c2cccc3c(N)ccc(c23)C1=O	70.2% (active)
CC(=O)c1ccc(NC(=S)NC(=O)CC(C)C)cc1	-2.1% (inactive)

Q: Note activation for the compound shown: CC1=CC(=C(C#N)c2nc3ccccc3s2)C=C(C)N1c1ccc(F)cc1F
Ans: 0.27% (inactive)

Q: Note activation for the compound shown: Cn1c2ccccc2c(=O)c2c(O)cccc21
Ans: -1.89% (inactive)

---

experimental_target: Oxytocin receptor (Homo sapiens)
assay_remarks: oxytocin receptor activation by calcium flux – fluorescence, CHO-OTR cells, Fluo-8 calcium, primary screen (AID 2435);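 further: peak over basal fluorescence ratio from a 100 s FLIPR kinetic read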
study_conditions: Fluo-8 calcium fluorescence, at 3 µM, normalized: DMSO 0%, oxytocin 100%
In all, about 320,000 compounds went through this assay and about 1,000 (0.31%) were called active.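 How the source made its calls: active means activation above the mean of all tested compounds plus 3 SD, cutoff set per screening run (cut at about 20% in these data); inactive means the rest.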 What follows is part of a selection rich in actives, with near analogues and random picks from the rest.
Respond only with the outcome that fits, drawn from active, inactive

Previously resolved entries follow.
Cc1ccccc1CSc1nnc(-c2ccccc2)c(=O)[nH]1	inactive
CCCn1nc2cc(C(=O)NCc3ccccc3)ccc2c1OCC	inactive
CCCCc1nc(NCCN)c(C#N)c2c1CSC(C)(C)C2	inactive

Q: Hi, sorry to bother you, what did the test record for CCC(C(=O)Nc1ccc2c(c1)OCCO2)c1ccccc1 (stereo unspecified) ?
Ans: inactive

Q: Hi, sorry to bother you, what did the test record for CC(C)(c1ccccc1)c1ccc(OCCN)cc1 ?
Ans: active

Q: Hi, sorry to bother you, what did the test record for CC(Oc1cccc(Cl)c1)C(=O)Nc1ccc(S(=O)(=O)Nc2ncccn2)cc1 (stereo unspecified) ?
Ans: inactive

Q: Hi, sorry to bother you, what did the test record for O=C(NC(Nc1nc2ccc([N+](=O)[O-])cc2s1)(C(F)(F)F)C(F)(F)F)c1ccccc1 ?
Ans: active

Q: Hi, sorry to bother you, what did the test record for COC(=O)c1nn(-c2cccc(Cl)c2)ccc1=O ?
Ans: inactive

Q: Hi, sorry to bother you, what did the test record for COc1ccc(S(=O)(=O)NCCc2c[nH]c3ccccc23)cc1OC ?
Ans: inactive

Q: Hi, sorry to bother you, what did the test record for CN(C)CCCN(C(=O)c1ccc(S(=O)(=O)N2CCCc3ccccc32)cc1)c1nc2ccc(F)cc2s1 ?
Ans: inactive

Q: Hi, sorry to bother you, what did the test record for C=CCNC(=O)/C=C/c1ccc(C(C)C)cc1 ?
Ans: inactive

---

experimental_target: Oxytocin receptor (Homo sapiens) (UniProt P30559)
assay_remarks: oxytocin receptor activation by calcium flux – fluorescence, CHO-OTR cells, Fluo-8 calcium, primary screen (AID 2435);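 further: peak over basal fluorescence ratio from a 100 s FLIPR kinetic read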
study_conditions: Fluo-8 calcium fluorescence, at 3 µM, hits give high values, normalized: DMSO 0%, oxytocin 100%
Hit rate of the full screen: of about 320,000 compounds, about 1,000 (0.31%) were called active. The sample as a whole holds a higher share of actives than the screen did.
quantity: activation (%)
Answer with a number only, understood to be in %.

Some entries whose results are on file:
CCOc1ccc(Cn2nnc(C(=O)Nc3ccc(OC)cc3OC)c2N)cc1	25.1
CC(C)Oc1c(Br)cc(Br)cc1/C=N/NC(N)=S	-1.11
COc1ccc(NC(=O)Cn2nnc(C(=O)NCCc3ccc(OC)c(OC)c3)c2N)cc1	-0.34

Q: Note activation for the molecule shown: COCCn1c(N)c(NCc2ccccc2)c(=O)[nH]c1=O
Ans: 0.2

Q: Note activation for the molecule shown: COC(=O)Cc1ccc(NC(=S)NCc2ccc(Cl)cc2)cc1
Ans: 7.5

---

experimental_target: Oxytocin receptor (Homo sapiens) (UniProt P30559)
assay_remarks: oxytocin receptor activation by calcium flux – fluorescence, CHO-OTR cells, Fluo-8 calcium, primary screen (AID 2435);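 further: peak over basal fluorescence ratio from a 100 s FLIPR kinetic read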
study_conditions: Fluo-8 calcium fluorescence, at 3 µM, normalized: DMSO 0%, oxytocin 100%
The campaign covered roughly 320,000 compounds. About 1,000 (0.31%) were called active.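 The calls were made as follows: active = activation above the mean of all tested compounds plus 3 SD, cutoff set per screening run (cut at about 20% in these data); inactive = the rest.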 Only a selection was taken, and actives are over-represented in it overall.
Respond only with the outcome that fits, drawn from active, inactive

Previously resolved entries follow.
Cc1ccc(CNC(=O)c2c(-c3ccccc3)noc2C)cc1	inactive
CN(C)CCN(C(=O)C1=COCCO1)c1nc2ccc(Cl)cc2s1	inactive
COc1ccc(-c2csc3ncnc(N4CCN(S(=O)(=O)c5ccccc5C#N)CC4)c23)cc1	inactive
Cc1onc(-c2c(Cl)cccc2Cl)c1C(=O)NNC(=O)c1c(-c2c(Cl)cccc2Cl)noc1C	inactive

Q: Hi, sorry to bother you, what did the test record for CCCc1cc(=O)[nH]c(SCC(=O)N2CCN(S(=O)(=O)c3ccc(C)cc3C)CC2)n1 ?
Ans: inactive

Q: Hi, sorry to bother you, what did the test record for Cc1ccc(OS(=O)Nc2cccc3nccnc23)cc1 (stereo unspecified) ?
Ans: inactive

Q: Hi, sorry to bother you, what did the test record for CCOc1ccc(CCNC(=O)C2CCN(c3ccc(N4CCOCC4)nn3)CC2)cc1OCC ?
Ans: inactive
